Just for reference, PubChem BioAssay (Tox21) is where these values come from.

# test-name: qHTS assay to test for compound auto fluorescence at 460 nm (blue) in HEK293 cell free culture (AID 720681)
# condition-context: cell-free medium, autofluorescence 405/460 nm (blue); series mostly up to 46 µM
Active and inactive are the calls of the source. Calls follow the shape of the dose curve; as a rule, active = well fitted curve in the direction sought with a large enough effect in the repeat runs; inconclusive = weak or mixed curves; inactive = flat fitted curve, though single readings scatter.
quantity-measured: outcome

molecule | observed-value
CCCCCCCCCCCCN1CCCC1=O | inactive
COc1ccc(/C=C/C(=O)Nc2ccccc2C(=O)O)cc1OC | inactive
CC(Cc1ccc(O)c(O)c1)C(C)Cc1ccc(O)c(O)c1 (stereo unspecified) | inactive
O=C1C2CC3CC1CC(O)(C3)C2 | inactive
CCCCCCCCCCCCCCCCCCNC(=O)OC1CCN(C(=O)OC[C@H](COC(=O)N(Cc2cccc[n+]2CC)C(=O)c2ccccc2OC)OC)CC1 | inactive

Could you now look at the following molecule, please?
Exercise: Specify measured outcome for CSCCC(N)C(=O)O (stereo unspecified) .
Key: inactive
